Consider the following compounds and their measured Activity readings.
Tested on: J774.A1
Test: Cytotoxicity against mouse J774A.1 cells assessed as decrease in cell viability at 10 nM after 20 hrs by resazurin dye-based fluorimetric method
Conditions: j774.a1, 20 h, 0.01 µM

test-smiles: O=C(CCl)Nc1ccccc1C(=O)C(=O)NNC(=O)c1ccncc1
Activity: 98.5%

test-smiles: CC(=O)Nc1ccccc1C(=O)C(=O)NNC(=O)c1ccncc1
Activity: 98.7%

test-smiles: CC(=O)Nc1ccc(C)cc1C(=O)C(=O)NNC(=O)c1ccncc1
Activity: 100%

test-smiles: O=C(NNC(=O)c1ccncc1)C(=O)c1ccccc1NC(=O)c1ccccc1
Activity: 99.4%

test-smiles: NNC(=O)c1ccncc1
Activity: 98.2%

----------
Assay: Selectivity index, ratio of LC50 for human HepG2 cells to MIC for Mycobacterium tuberculosis H37Rv ATCC 27294
Assay type: toxicity
Details: read-out: Selectivity Index

test-smiles: NNC(=O)c1ccncc1
reading-qualifier: =
selectivity ratio: 119
--
test-smiles: O=C(NNC(=O)c1ccncc1)C(=O)c1ccccc1NC(=O)c1ccccc1
reading-qualifier: >
selectivity ratio: 25
--
test-smiles: CC(=O)Nc1ccccc1C(=O)C(=O)NNC(=O)c1ccncc1
reading-qualifier: =
selectivity ratio: 67
--
test-smiles: O=C(CCl)Nc1ccccc1C(=O)C(=O)NNC(=O)c1ccncc1
reading-qualifier: =
selectivity ratio: 256
--
test-smiles: CC(=O)Nc1ccc(C)cc1C(=O)C(=O)NNC(=O)c1ccncc1
reading-qualifier: >
selectivity ratio: 444

----------
Below, each entry is listed alongside its reported Activity.
System: J774.A1
Assay: Cytotoxicity against mouse J774A.1 cells assessed as decrease in cell viability at 100 nM after 20 hrs by resazurin dye-based fluorimetric method
Settings: j774.a1, 20 h, 0.1 µM
quantity-kind: Activity

compound: CC(=O)Nc1ccccc1C(=O)C(=O)NNC(=O)c1ccncc1
recorded-result: 97.7%
--
compound: CC(=O)Nc1ccc(C)cc1C(=O)C(=O)NNC(=O)c1ccncc1
recorded-result: 99.5%
--
compound: O=C(NNC(=O)c1ccncc1)C(=O)c1ccccc1NC(=O)c1ccccc1
recorded-result: 99.8%
--
compound: O=C(CCl)Nc1ccccc1C(=O)C(=O)NNC(=O)c1ccncc1
recorded-result: 97.9%
--
compound: NNC(=O)c1ccncc1 [ISONIAZID]
recorded-result: 97.3%

----------
# maps each entry to its Activity
Tested on: J774.A1
Experiment: Cytotoxicity against mouse J774A.1 cells assessed as decrease in cell viability at 1 nM after 20 hrs by resazurin dye-based fluorimetric method
Conditions: j774.a1, 20 h, 0.001 µM
quantity-kind: Activity (%)

compound: NNC(=O)c1ccncc1 [ISONIAZID]
quantity-kind: Activity
recorded-result: 99.5
//
compound: CC(=O)Nc1ccc(C)cc1C(=O)C(=O)NNC(=O)c1ccncc1
quantity-kind: Activity
recorded-result: 100
//
compound: CC(=O)Nc1ccccc1C(=O)C(=O)NNC(=O)c1ccncc1
quantity-kind: Activity
recorded-result: 99.6
//
compound: O=C(NNC(=O)c1ccncc1)C(=O)c1ccccc1NC(=O)c1ccccc1
quantity-kind: Activity
recorded-result: 100
//
compound: O=C(CCl)Nc1ccccc1C(=O)C(=O)NNC(=O)c1ccncc1
quantity-kind: Activity
recorded-result: 99

----------
Test: Cytotoxicity against human HepG2 cells after 24 hrs by WST-1 assay
Format: cell-based
Settings: read-out: LC50
# maps each entry to its CC50 at 24 h

test-smiles: CC(=O)Nc1ccccc1C(=O)C(=O)NNC(=O)c1ccncc1
unit: µM
reading-qualifier: =
CC50 at 24 h: 31.5

test-smiles: CC(=O)Nc1ccc(C)cc1C(=O)C(=O)NNC(=O)c1ccncc1
unit: µM
reading-qualifier: >
CC50 at 24 h: 200

test-smiles: O=C(CCl)Nc1ccccc1C(=O)C(=O)NNC(=O)c1ccncc1
unit: µM
reading-qualifier: =
CC50 at 24 h: 110

test-smiles: O=C(NNC(=O)c1ccncc1)C(=O)c1ccccc1NC(=O)c1ccccc1
unit: µM
reading-qualifier: >
CC50 at 24 h: 200

test-smiles: NNC(=O)c1ccncc1
unit: µM
reading-qualifier: =
CC50 at 24 h: 105

----------
Test system: Mycobacterium tuberculosis
Assay: Antitubercular activity against Mycobacterium tuberculosis H37Rv ATCC 27294 after 5 days by microplate alamar blue assay
Assay type: functional
Conditions: H37Rv ATCC 27294, 120 h
Each record here notes measured MIC.

compound: CC(=O)Nc1ccccc1C(=O)C(=O)NNC(=O)c1ccncc1
reading-qualifier: =
MIC [µM]: 0.47

compound: CC(=O)Nc1ccc(C)cc1C(F)(F)C(=O)NN
reading-qualifier: >
MIC [µM]: 412

compound: CC(=O)Nc1ccc(C)cc1C(F)(F)C(=O)NNc1ccccc1
reading-qualifier: >
MIC [µM]: 300

compound: CC(=O)Nc1ccccc1C(F)(F)C(=O)NNC(=O)c1ccncc1
reading-qualifier: =
MIC [µM]: 3.59

compound: NC(=O)c1cnccn1 [PYRAZINAMIDE]
reading-qualifier: =
MIC [µM]: 813

compound: CC(=O)Nc1ccc(C)cc1C(F)(F)C(=O)NNC(=O)c1ccncc1
reading-qualifier: =
MIC [µM]: 6.91

compound: NNC(=O)c1ccncc1 [ISONIAZID]
reading-qualifier: =
MIC [µM]: 0.88

compound: CC(=O)Nc1ccc(F)cc1C(F)(F)C(=O)NNC(=O)c1ccncc1
reading-qualifier: =
MIC [µM]: 17.1

compound: CO[C@H]1/C=C/O[C@@]2(C)Oc3c(C)c(O)c4c(O)c(c(/C=N/N5CCN(C)CC5)c(O)c4c3C2=O)NC(=O)/C(C)=C\C=C\[C@H](C)[C@H](O)[C@@H](C)[C@@H](O)[C@@H](C)[C@H](OC(C)=O)[C@@H]1C [RIFAMPIN]
reading-qualifier: =
MIC [µM]: 1.22

compound: CC(=O)Nc1ccccc1C(F)(F)C(=O)NNc1ccccn1
reading-qualifier: >
MIC [µM]: 312

compound: CC(=O)Nc1ccc(C)cc1C(F)(F)C(=O)NNc1ccccn1
reading-qualifier: >
MIC [µM]: 299

compound: CC(=O)Nc1ccccc1C(F)(F)C(=O)NNC(=N)N
reading-qualifier: >
MIC [µM]: 351

compound: CC(=O)Nc1ccccc1C(F)(F)C(=O)NNc1ccccc1
reading-qualifier: >
MIC [µM]: 313

compound: CC(=O)Nc1ccccc1C(F)(F)C(=O)NN=C1CCCCC1
reading-qualifier: >
MIC [µM]: 310

compound: COc1ccc(NC(C)=O)c(C(F)(F)C(=O)NNC(=O)c2ccncc2)c1
reading-qualifier: =
MIC [µM]: 33.1

compound: CC(=O)Nc1ccc(Cl)cc1C(F)(F)C(=O)NNC(=O)c1ccncc1
reading-qualifier: =
MIC [µM]: 16.4

compound: O=C(NNC(=O)c1ccncc1)C(=O)c1ccccc1NC(=O)c1ccccc1
reading-qualifier: =
MIC [µM]: 8.04

compound: CC[C@@H](CO)NCCN[C@@H](CC)CO [ETHAMBUTOL]
reading-qualifier: =
MIC [µM]: 15.9

compound: CC(=O)Nc1ccc(C)cc1C(=O)C(=O)NNC(=O)c1ccncc1
reading-qualifier: =
MIC [µM]: 0.45

compound: CC(=O)NNC(=O)c1ccncc1
reading-qualifier: >
MIC [µM]: 559

compound: O=C(CCl)Nc1ccccc1C(=O)C(=O)NNC(=O)c1ccncc1
reading-qualifier: =
MIC [µM]: 0.43

----------
Measured Activity by item
Tested on: J774.A1
Assay: Cytotoxicity against mouse J774A.1 cells assessed as decrease in cell viability at 10 uM after 20 hrs by resazurin dye-based fluorimetric method
Conditions: j774.a1, 20 h
quantity-kind: Activity (%)

test-smiles: O=C(NNC(=O)c1ccncc1)C(=O)c1ccccc1NC(=O)c1ccccc1
test-system: J774.A1
quantity-kind: Activity
unit: %
recorded-result: 98
//
test-smiles: CC(=O)Nc1ccccc1C(=O)C(=O)NNC(=O)c1ccncc1
test-system: J774.A1
quantity-kind: Activity
unit: %
recorded-result: 97.1
//
test-smiles: NNC(=O)c1ccncc1
test-system: J774.A1
quantity-kind: Activity
unit: %
recorded-result: 98.5
//
test-smiles: CC(=O)Nc1ccc(C)cc1C(=O)C(=O)NNC(=O)c1ccncc1
test-system: J774.A1
quantity-kind: Activity
unit: %
recorded-result: 98.2
//
test-smiles: O=C(CCl)Nc1ccccc1C(=O)C(=O)NNC(=O)c1ccncc1
test-system: J774.A1
quantity-kind: Activity
unit: %
recorded-result: 98.8

----------
System: J774.A1
Assay: Cytotoxicity against mouse J774A.1 cells assessed as decrease in cell viability at 100 uM after 20 hrs by resazurin dye-based fluorimetric method
Details: j774.a1, 20 h

test-smiles: CC(=O)Nc1ccc(C)cc1C(=O)C(=O)NNC(=O)c1ccncc1
Activity: 94%
//
test-smiles: O=C(NNC(=O)c1ccncc1)C(=O)c1ccccc1NC(=O)c1ccccc1
Activity: 86.5%
//
test-smiles: NNC(=O)c1ccncc1
Activity: 90.3%
//
test-smiles: O=C(CCl)Nc1ccccc1C(=O)C(=O)NNC(=O)c1ccncc1
Activity: 63.3%
//
test-smiles: CC(=O)Nc1ccccc1C(=O)C(=O)NNC(=O)c1ccncc1
Activity: 93.3%

All values here come from ChEMBL document CHEMBL4196010.
